- MEASUREMENT NOTES: chemical genetic growth profiling, strain panel (AID 1159580);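 further: tested at 20 µM; growth read once vehicle control cultures reached saturation at 30 °C; 1 = growth at the plate median or of vehicle wells; lower values mean less growth of the strain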
- DETAILS: S. cerevisiae deletion strains, growth OD, locus YNL153C, strain GIM3, stronger effect = lower value
About 2,000 (36%) of roughly 5,500 compounds were called active. About 18% were inconclusive and are not listed. The list shows a part of the results.
normalized growth listing for selected compounds.

| MOL | normalized growth |
| --- | --- |
| Cc1cc(=O)n2[nH]cc(C#N)c2n1 | 1.02 |
| CC(=O)[C@]1(O)Cc2c(O)c3c(c(O)c2[C@@H](O[C@H]2C[C@H](N)[C@H](O)[C@H](C)O2)C1)C(=O)c1ccccc1C3=O | 0.59 |
| Cc1ccnc(NS(=O)(=O)c2ccc(N)cc2)n1 | 1.01 |
| O=C(Nc1ccc(Br)cc1Cl)C(Cl)(Cl)Cl | 0.962 |
| C/C(O)=C(\C#N)C(=O)Nc1cc(Br)ccc1Br | 0.999 |
| Nc1ccc(S(=O)(=O)Nc2cnc3ccccc3n2)cc1 | 0.962 |
